Parameter: normalized growth. Scope: all listed entries.
Assay: chemical genetic growth profiling, strain panel (AID 1159580);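 note: tested at 20 µM; growth read once vehicle control cultures reached saturation at 30 °C; 1 = growth at the plate median or of vehicle wells; lower values mean less growth of the strain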
Conditions: S. cerevisiae deletion strains, growth OD, locus YOR316C, strain cot1, hits give low values
Among all 5,500 compounds or so, about 2,000 (36%) were called active. Another 18% or so got no clear call; they are omitted. The list shows a part of the results. Where a SMILES comes first, the peptide text is derived from it. Bridges are numbered along the chain shown (N, C = ends). [ ]: non-standard residue; d: D form. The star is where a group is joined. Octanoyl(6-Me) = CCC(C)CCCCC(=O)*; Dab = NCC[CH](N)C(=O)O

{"molecule": "NC1CC1c1ccccc1 (stereo not drawn)", "normalized growth": 0.992}
{"molecule": "CCC1(CC)C(=O)C=CNC1=O", "normalized growth": 1.01}
{"molecule": "O=C(O)c1cc([N+](=O)[O-])ccc1NCCCc1ccccc1", "normalized growth": 0.945}
{"molecule": "COc1cccc(O)c1O", "normalized growth": 0.995}
{"molecule": "NC(N)=NC(N)=Nc1ccccc1", "normalized growth": 0.996}
{"molecule": "CC1=CC2C(C(C)C)CCC(C)(O)C2CC1 (stereo not drawn)", "normalized growth": 0.989}
{"molecule": "COC1(C)CCC2OC2(C)CCC2C1CC2(C)C (stereo not drawn)", "normalized growth": 1.01}
{"molecule": "Cc1ccc(N(CC2=NCCN2)c2cccc(O)c2)cc1", "normalized growth": 1.01}
{"molecule": "COc1ccc([C@H]2COc3c(ccc(O)c3OC)C2)c(OC)c1O", "normalized growth": 0.981}
{"molecule": "COc1ccc(C2C(=O)c3ccccc3C2=O)cc1", "normalized growth": 0.983}
{"molecule": "CC(=O)OCC1=C(C(=O)O)N2C(=O)[C@@H](NC(=O)CCCC(N)C(=O)O)C2SC1 (stereo partly drawn)", "normalized growth": 0.994}
{"molecule": "NCC1OC(OC2C(CO)OC(OC3C(O)C(N)CC(N)C3OC3OC(CO)C(O)CC3N)C2O)C(N)C(O)C1OC1OC(CO)C(O)C(O)C1O (stereo not drawn)", "normalized growth": 0.965}
{"molecule": "Cc1cc(C(C)(C)C)cc(C)c1CC1=NCCN1", "normalized growth": 0.997}
{"molecule": "CCC(C)CCCCC(=O)NC(CCN)C(=O)NC(C(=O)NC(CCN)C(=O)NC1CCNC(=O)C(C(C)O)NC(=O)C(CCN)NC(=O)C(CCN)NC(=O)C(CC(C)C)NC(=O)C(Cc2ccccc2)NC(=O)C(CCN)NC1=O)C(C)O (stereo not drawn) ({Octanoyl(6-Me)}-[Dab]T[Dab][Dab][Dab]FL[Dab][Dab]T; lactam 4-C; configuration not given here)", "normalized growth": 1}
{"molecule": "CC(N)C(O)c1ccc(O)c(O)c1 (stereo not drawn)", "normalized growth": 0.981}
{"molecule": "O=c1c(O)c(-c2ccc(O)c(O)c2)oc2cc(O)ccc12", "normalized growth": 1.01}
{"molecule": "CC1=NN(c2ccccc2)C(=O)C1", "normalized growth": 0.984}
{"molecule": "OCCN1CCN(CCCN2c3ccccc3Sc3ccc(C(F)(F)F)cc32)CC1", "normalized growth": 0.991}
